test system: pHeps mono-culture; assay: Alamar Blue cell viability, pHeps mono-culture; type: cell-based, human; settings: Homo sapiens, 24 h
measured_property: IC50 (mM)
Just the number please, in mM, no unit attached.

Give recorded IC50 with pHeps mono-culture for the following compound: CC(=O)Nc1ccc(O)cc1
45

----------
assay: Alamar Blue cell viability, pHeps-pKCs co-culture; assay type: cell-based, human; conditions: human, pHeps in co-culture with pKCs; 100 μM, pHeps-pKCs co-culture
measured_property: viability at 24 h, 100 µM
Write down the value, and be sure its unit follows.

Which viability at 24 h, 100 µM is listed for N[C@@H]1[C@H]2CN(c3nc4c(cc3F)c(=O)c(C(=O)O)cn4-c3ccc(F)cc3F)C[C@@H]12 ?
53.8%

----------
system: pHeps in co-culture with pKCs; test: Alamar Blue cell viability, pHeps-pKCs co-culture; format: cell-based, human; conditions: Homo sapiens, 24 h
measured_property: IC50 (mM)
Just the number please, in mM, no unit attached.

Which IC50 is listed for CC(=O)Nc1ccc(O)cc1 [APAP, Acetaminophen] ?
12.5

----------
experiment: Alamar Blue cell viability, pHeps mono-culture; format: cell-based, human; settings: human, pHeps mono-culture
measured_property: viability at 24 h

Which viability at 24 h is listed for C[C@H]1COc2c(N3CCN(C)CC3)c(F)cc3c(=O)c(C(=O)O)cn1c23 ?
> 90%

----------
experiment: Alamar Blue cell viability, pHeps-iKCs co-culture; format: cell-based, human; conditions: human, pHeps in co-culture with iKCs; 100 μM, pHeps-iKCs co-culture
measured_property: viability at 24 h, 100 µM
Write down the value, and be sure its unit follows.

Which viability at 24 h, 100 µM is listed for N[C@@H]1[C@H]2CN(c3nc4c(cc3F)c(=O)c(C(=O)O)cn4-c3ccc(F)cc3F)C[C@@H]12 ?
55.8%

----------
assay: Alamar Blue cell viability, pHeps-pKCs co-culture; assay type: cell-based, human; conditions: human, pHeps in co-culture with pKCs
measured_property: viability at 24 h

Which viability at 24 h is listed for C[C@H]1COc2c(N3CCN(C)CC3)c(F)cc3c(=O)c(C(=O)O)cn1c23 ?
> 90%

----------
test: Alamar Blue cell viability, pHeps mono-culture; type: cell-based, human; settings: human; 100 μM, pHeps mono-culture
measured_property: viability at 24 h, 100 µM (%)
Just the number please, in %, no unit attached.

Which viability at 24 h, 100 µM is listed for N[C@@H]1[C@H]2CN(c3nc4c(cc3F)c(=O)c(C(=O)O)cn4-c3ccc(F)cc3F)C[C@@H]12 [Trovafloxacin] ?
73.8

----------
experiment: Alamar Blue cell viability, iHeps mono-culture; type: cell-based, human; conditions: human, iHeps mono-culture (stem-cell derived)
measured_property: viability at 24 h

Which viability at 24 h is listed for C[C@H]1COc2c(N3CCN(C)CC3)c(F)cc3c(=O)c(C(=O)O)cn1c23 [Levofloxacin] ?
> 90%
